- Test system: NKG2A−/NKG2C+ NK cells
- METHOD_DESCRIPTION: NK cell activation markers in NKG2A-/NKG2C+ NK cells incubated with peptide and K562 expressing HLA-E (activation)
- Type: cell-based, human
- CONDITION_PARAMETERS: NKG2A-/NKG2C+ NK cells, K562/HLA-E, Trial 3
Where no end group is shown, it is not given here.
EXPERIMENTAL_ENDPOINT: percentage of IFNG+ NK cells

SEQUENCE	EXPERIMENTAL_ENDPOINT	MEAS_VALUE
VMAPQSLLL [VMAPQSLLL (PQS), negative control peptide, reference compound]	percentage of IFNG+ NK cells	40.7%
FLPNRSLLF [human8, peptide SLC52A3 354-362 derived from the human proteome]	percentage of IFNG+ NK cells	74.5%
RMPPRSVLL [human12]	percentage of IFNG+ NK cells	66.3%
VMPPRTLLL [human15, peptide HLA-A 3-11 derived from the human proteome]	percentage of IFNG+ NK cells	78.8%
VMPGRTLCF [human11, peptide TACR3 226-234 derived from the human proteome]	percentage of IFNG+ NK cells	76.8%
NMPARTVLF [human14, peptide MTREX 490-498 derived from the human proteome]	percentage of IFNG+ NK cells	74.2%
TLPKRGLFL [human2, TLPKRGLFL]	percentage of IFNG+ NK cells	83%
TLPERTLYL [human7, peptide ECEL1 269-277 derived from the human proteome]	percentage of IFNG+ NK cells	79.8%
ILTDRSLWL [human4, peptide FBXO41 670-678 derived from the human proteome]	percentage of IFNG+ NK cells	75.9%

---

- MEASURED_ON: CD94/NKG2C (Homo sapiens, UniProt P26717+Q13241)
- Sequence (P26717 94-231 limits assumed): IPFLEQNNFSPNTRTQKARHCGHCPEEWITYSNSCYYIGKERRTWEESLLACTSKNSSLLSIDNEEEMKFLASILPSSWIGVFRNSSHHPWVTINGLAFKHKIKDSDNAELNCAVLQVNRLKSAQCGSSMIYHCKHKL
- Sequence (Q13241 32-179 limits assumed): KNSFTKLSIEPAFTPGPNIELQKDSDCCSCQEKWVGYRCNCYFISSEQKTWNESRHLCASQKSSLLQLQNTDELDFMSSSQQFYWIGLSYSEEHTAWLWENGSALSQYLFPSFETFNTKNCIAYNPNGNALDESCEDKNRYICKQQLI
- METHOD_DESCRIPTION: Steady-state surface plasmon resonance of peptide-HLA-E complex with CD94/NKG2C
- Type: binding
- CONDITION_PARAMETERS: steady-state SPR; CD94/NKG2C analyte concentration 12.8 μM
Where no end group is shown, it is not given here.
Threshold check on Binding of peptide-HLA-E complexes to CD94/NKG2C normalized to a theoretical Rmax: at or above 0.3 gives class 1, strictly below gives class 0.

SEQUENCE	GROUP
QMPSRSLLF [human1, QMPSRSLLF]	class 1
TLPKRGLFL [human2, TLPKRGLFL]	class 1
TAPARTMFL [human13, TAPARTMFL]	class 1
TGPWRSLWI [human3, TGPWRSLWI]	class 0
VNPGRSLFL [human5, VNPGRSLFL]	class 1

---

Catalogue of binding of peptide-HLA-E complex to CD94/NKG2A normalized to a fitted Rmax readings, one per entry.
- MEASURED_ON: CD94/NKG2A (Homo sapiens, UniProt P26715+Q13241)
- Sequence (P26715 94-233 limits assumed): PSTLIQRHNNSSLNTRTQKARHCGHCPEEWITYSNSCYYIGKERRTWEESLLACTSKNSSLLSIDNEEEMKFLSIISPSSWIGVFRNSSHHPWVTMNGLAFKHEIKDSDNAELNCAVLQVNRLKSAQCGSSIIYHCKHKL
- Sequence (Q13241 32-179 limits assumed): as the sequence (Q13241 32-179 limits assumed) above
- METHOD_DESCRIPTION: Steady-state surface plasmon resonance of peptide-HLA-E complex with CD94/NKG2A
- Type: binding
- CONDITION_PARAMETERS: CD94/NKG2A concentration 0.4 μM
Where no end group is shown, it is not given here.
EXPERIMENTAL_ENDPOINT: binding of peptide-HLA-E complex to CD94/NKG2A normalized to a fitted Rmax

SEQUENCE	MEAS_VALUE
TAPARTMFL [human13, TAPARTMFL]	0.066
QMPSRSLLF [human1, QMPSRSLLF]	0.128
TGPWRSLWI [human3, TGPWRSLWI]	0.030
TLPKRGLFL [human2, TLPKRGLFL]	0.094
VNPGRSLFL [human5, VNPGRSLFL]	0.434

---

- System: NKG2A−/NKG2C− NK cells
- METHOD_DESCRIPTION: NK cell activation markers in control NKG2A-/NKG2C- NK cells incubated with peptide and K562 expressing HLA-E
- Format: cell-based, human
- CONDITION_PARAMETERS: Trial 1
Where no end group is shown, it is not given here.
EXPERIMENTAL_ENDPOINT: percentage TNF+ NK cells (%)

SEQUENCE	EXPERIMENTAL_ENDPOINT	MEAS_VALUE
RMPPRSVLL [human12]	percentage TNF+ NK cells	3.43
VLPHRTQFL [CMV1, novel CMV-derived peptide UL120 72-80, Merlin]	percentage TNF+ NK cells	2.62
VMAPRTLIL [VMAPRTLIL (LIL), positive control peptide, reference compound]	percentage TNF+ NK cells	3.46
FLPNRSLLF [human8, peptide SLC52A3 354-362 derived from the human proteome]	percentage TNF+ NK cells	4.82
VNPGRSLFL [human5, VNPGRSLFL]	percentage TNF+ NK cells	4.11
VMAPQSLLL [VMAPQSLLL (PQS), negative control peptide, reference compound]	percentage TNF+ NK cells	3.46

---

- MEASURED_ON: CD94/NKG2C (Homo sapiens, UniProt P26717+Q13241)
- METHOD_DESCRIPTION: Steady-state surface plasmon resonance of peptide-HLA-E complex with CD94/NKG2C
- Assay type: binding
- CONDITION_PARAMETERS: steady-state SPR; CD94/NKG2C analyte concentration 102.4 μM
Where no end group is shown, it is not given here.
Each entry below lists one item and its recorded Binding of peptide-HLA-E complexes to CD94/NKG2C normalized to a theoretical Rmax value.
EXPERIMENTAL_ENDPOINT: Binding of peptide-HLA-E complexes to CD94/NKG2C normalized to a theoretical Rmax

SEQUENCE	MEAS_VALUE
TGPWRSLWI [human3, TGPWRSLWI]	0.205
TLPKRGLFL [human2, TLPKRGLFL]	0.638
VNPGRSLFL [human5, VNPGRSLFL]	0.363
QMPSRSLLF [human1, QMPSRSLLF]	0.560
TAPARTMFL [human13, TAPARTMFL]	0.669

---

- System: NKG2A−/NKG2C+ NK cells
- METHOD_DESCRIPTION: NK cell activation markers in NKG2A-/NKG2C+ NK cells incubated with peptide and K562 expressing HLA-E (activation)
- Format: cell-based, human
- CONDITION_PARAMETERS: NKG2A-/NKG2C+ NK cells, K562/HLA-E, Trial 6
Where no end group is shown, it is not given here.
Catalogue of percentage of IFNG+ NK cells values

SEQUENCE	percentage of IFNG+ NK cells
NMPARTVLF [human14, peptide MTREX 490-498 derived from the human proteome]	30.5%
VMAPRTLIL [VMAPRTLIL (LIL), positive control peptide, reference compound]	45.9%
VNPGRSLFL [human5, VNPGRSLFL]	28.6%
TLPKRGLFL [human2, TLPKRGLFL]	50.7%
ILTDRSLWL [human4, peptide FBXO41 670-678 derived from the human proteome]	54%

---

- MEASURED_ON: CD94/NKG2A (Homo sapiens, UniProt P26715+Q13241)
- METHOD_DESCRIPTION: Steady-state surface plasmon resonance of peptide-HLA-E complex with CD94/NKG2A
- Type: binding
- CONDITION_PARAMETERS: steady-state SPR; CD94/NKG2A analyte concentration 25.600 μM
Where no end group is shown, it is not given here.
Note to self: Binding of peptide-HLA-E complexes to CD94/NKG2A normalized to a theoretical Rmax under 0.6 means YES, ties and anything higher get NO.

SEQUENCE	GROUP
VNPGRSLFL [human5, VNPGRSLFL]	YES
TLPKRGLFL [human2, TLPKRGLFL]	NO
TAPARTMFL [human13, TAPARTMFL]	YES
TGPWRSLWI [human3, TGPWRSLWI]	YES
QMPSRSLLF [human1, QMPSRSLLF]	NO

---

HLA-E surface expression stability (GeoMFI) listing for selected sequences.
- MEASURED_ON: HLA-E (Homo sapiens)
- Construct: expressed in transfected cells; host or cells: RMA-S/HLA-E cells (antigen processing-defective lymphoma cell line)
- Sequence (P13747 22-358): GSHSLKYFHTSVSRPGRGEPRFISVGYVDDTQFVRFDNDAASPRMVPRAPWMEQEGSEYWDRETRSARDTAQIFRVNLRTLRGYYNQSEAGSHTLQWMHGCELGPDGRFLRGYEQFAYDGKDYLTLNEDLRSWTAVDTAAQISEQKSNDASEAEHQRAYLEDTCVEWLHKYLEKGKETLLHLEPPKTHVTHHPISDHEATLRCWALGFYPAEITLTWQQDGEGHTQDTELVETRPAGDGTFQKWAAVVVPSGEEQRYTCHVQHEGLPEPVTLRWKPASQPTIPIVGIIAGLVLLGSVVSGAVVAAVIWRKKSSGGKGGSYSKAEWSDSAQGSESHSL
- Sequence (P61769 21-119 partner): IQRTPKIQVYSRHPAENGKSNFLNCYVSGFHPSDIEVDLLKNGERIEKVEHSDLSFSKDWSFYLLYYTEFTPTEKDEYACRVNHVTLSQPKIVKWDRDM
- METHOD_DESCRIPTION: HLA-E surface stabilization assay with RMA-S/HLA-E cells
- Assay type: cell-based
- CONDITION_PARAMETERS: 30 μM peptide, 16 hours, anti-HLA-E antibody, Trial 3
- Method: HLA-E surface expression was assessed by measuring geometric mean fluorescence intensity (GeoMFI) in RMA-S cells following immunofluorescence staining with an anti-HLA-E antibody (Table 14). Increased GeoMFI was indicative of increased HLA-E surface expression stability following novel peptide exposures (FIG. 3).
Where no end group is shown, it is not given here.
EXPERIMENTAL_ENDPOINT: HLA-E surface expression stability (GeoMFI)

SEQUENCE	MEASURED_ON	UNITS_TEXT	MEAS_VALUE
ILTDRSLWL [human4, peptide FBXO41 670-678 derived from the human proteome]	HLA-E (Homo sapiens)	GeoMFI	887
TLPKRGLFL [human2, TLPKRGLFL]	HLA-E (Homo sapiens)	GeoMFI	1731
TLPERTLYL [human7, peptide ECEL1 269-277 derived from the human proteome]	HLA-E (Homo sapiens)	GeoMFI	3903
